- test.details: Tetrahydrocurcumin solubility (saturation) in hydrogel formulations, UV 280 nm
- Format: physicochemical
- condition: 4 °C, aqueous with cosolvent or surfactant or cyclodextrin, thermodynamic from solid; tested gels
quantity.measured: solubility at 48 h

Reported solubility at 48 h of COc1cc(CCC(=O)CC(=O)CCc2ccc(O)c(OC)c2)ccc1O [Tetrahydrocurcumin] : 85 to 236 µg/mL

Data provenance: patent US20240024233A1
